Cited source for all entries: PubChem BioAssay AID2060494

Tested on: 435261-313-R-J1-PDC complex spheroid viability
Experiment: Anticancer human tumor 435261-313-R-J1-PDC patient-derived colon adenocarcinoma cell line growth inhibition [GQUAD]
Settings: second compound 3.16 µM; first compound 0.000999 µM; stronger effect = lower value
Note to self: use TRUE only for viability, T/C readings below 30%; a reading exactly at 30% still gets FALSE.

molecule: Cc1[nH]c2ccccc2c1CCNCc1ccc(/C=C/C(=O)NO)cc1 + CN(C)c1ccc(Nc2c3ccc(NC(=O)CCN4CCCC4)cc3nc3cc(NC(=O)CCN4CCCC4)ccc23)cc1
class-name: FALSE
//
molecule: CCc1c2c(nc3ccc(O)cc13)-c1cc3c(c(=O)n1C2)COC(=O)[C@]3(O)CC + Cc1[nH]c2ccc(F)cc2c1-c1nc2c3cccnc3c3ncccc3c2[nH]1
class-name: FALSE
//
molecule: Cn1ncnc1[C@H]1c2n[nH]c(=O)c3cc(F)cc(c23)N[C@@H]1c1ccc(F)cc1 + Cc1cnc(CNC(=O)c2c(=O)c3ccc(N4CCCN(C)CC4)nc3n3c2sc2ccccc23)cn1
class-name: TRUE
//
molecule: CCc1c2c(nc3ccc(O)cc13)-c1cc3c(c(=O)n1C2)COC(=O)[C@]3(O)CC + Cc1cnc(CNC(=O)c2c(=O)c3ccc(N4CCCN(C)CC4)nc3n3c2sc2ccccc23)cn1
class-name: TRUE

Please find the next molecule below.
Decide: viability, T/C of CCc1c2c(nc3ccc(O)cc13)-c1cc3c(c(=O)n1C2)COC(=O)[C@]3(O)CC + CN(C)c1ccc(Nc2c3ccc(NC(=O)CCN4CCCC4)cc3nc3cc(NC(=O)CCN4CCCC4)ccc23)cc1 strictly below 30%?
FALSE

* * *

Test system: 435261-313-R-J1-PDC complex spheroid viability
Experiment: Anticancer human tumor 435261-313-R-J1-PDC cell line growth inhibition [GQUAD];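 note: spheroids exposed to the agents for seven days before readout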
Conditions: curve of first compound; second compound 0.0316 µM
recorded-endpoint: IC50

Consider the worked cases shown below.
compound: COc1cc(C2c3cc4c(cc3C(OC3OC5COC(C)OC5C(O)C3O)C3COC(=O)C23)OCO4)cc(OC)c1O (stereo not given) + Cc1cnc(CNC(=O)c2c(=O)c3ccc(N4CCCN(C)CC4)nc3n3c2sc2ccccc23)cn1
IC50: > 10000 nM

compound: O=C(c1cc(Cc2n[nH]c(=O)c3ccccc23)ccc1F)N1CCN(C(=O)C2CC2)CC1 + CN(C)c1ccc(Nc2c3ccc(NC(=O)CCN4CCCC4)cc3nc3cc(NC(=O)CCN4CCCC4)ccc23)cc1
IC50: > 10000 nM

compound: CC1COCCN1c1cc(C2(S(C)(=N)=O)CC2)nc(-c2ccnc3[nH]ccc23)n1 (stereo not given) + Cc1[nH]c2ccc(F)cc2c1-c1nc2c3cccnc3c3ncccc3c2[nH]1
IC50: > 10000 nM

compound: Cc1cccc(N(C)C(=O)C2C(O)CCN2c2nc(C)cc(C(F)(F)F)c2C#N)c1 (stereo not given) + Cc1[nH]c2ccc(F)cc2c1-c1nc2c3cccnc3c3ncccc3c2[nH]1
IC50: > 10000 nM

compound: CC(C)n1c(=O)n(C)c2cnc3cc(F)c(-c4ccc(OCCCN5CCCCC5)nc4)cc3c21 + CN(C)c1ccc(Nc2c3ccc(NC(=O)CCN4CCCC4)cc3nc3cc(NC(=O)CCN4CCCC4)ccc23)cc1
IC50: > 10000 nM

compound: CC[C@@]1(O)C(=O)OCc2c1cc1n(c2=O)Cc2cc3c(CN(C)C)c(O)ccc3nc2-1 + Cc1cnc(CNC(=O)c2c(=O)c3ccc(N4CCCN(C)CC4)nc3n3c2sc2ccccc23)cn1
IC50: > 316 nM

compound: COc1cccc2c1C(=O)c1c(O)c3c(c(O)c1C2=O)CC(O)(C(=O)CO)CC3OC1CC(N)C(O)C(C)O1 (stereo not given) + Cc1cnc(CNC(=O)c2c(=O)c3ccc(N4CCCN(C)CC4)nc3n3c2sc2ccccc23)cn1
IC50: 171 nM

compound: COc1ccc([C@@H](O)c2cc(-c3ncnc4cc(N5CCOCC5)ccc34)c(F)cc2Cl)nn1 + Cc1[nH]c2ccc(F)cc2c1-c1nc2c3cccnc3c3ncccc3c2[nH]1
IC50: 1080 nM

compound: O=C(NO)c1cnc(N2CCN(S(=O)(=O)c3ccc4ccccc4c3)CC2)nc1 + Cc1[nH]c2ccc(F)cc2c1-c1nc2c3cccnc3c3ncccc3c2[nH]1
IC50: 430 nM

Moving on to another compound below.
Requested read-out: IC50. Entry: CC(=O)O[C@H]1C(=O)[C@@]2(C)[C@H]([C@H](OC(=O)c3ccccc3)[C@]3(O)C[C@H](OC(=O)[C@H](O)[C@@H](NC(=O)c4ccccc4)c4ccccc4)C(C)=C1C3(C)C)[C@]1(OC(C)=O)CO[C@@H]1C[C@@H]2O + CN(C)c1ccc(Nc2c3ccc(NC(=O)CCN4CCCC4)cc3nc3cc(NC(=O)CCN4CCCC4)ccc23)cc1
> 10000 nM

* * *

Tested on: 435261-313-R-J1-PDC complex spheroid viability
Assay: Anticancer human tumor 435261-313-R-J1-PDC cell line growth inhibition [GQUAD];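 note: spheroids exposed to the agents for seven days before readout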;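 for viability, T/C: percent of vehicle control viability with DMSO wells as 100%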
Conditions: second compound 3.16 µM; first compound 0.0316 µM; stronger effect = lower value
Note to self: use fulfilled only for viability, T/C readings below 30%; a reading exactly at 30% still gets not fulfilled.

compound: CC(=O)O[C@H]1C(=O)[C@@]2(C)[C@H]([C@H](OC(=O)c3ccccc3)[C@]3(O)C[C@H](OC(=O)[C@H](O)[C@@H](NC(=O)c4ccccc4)c4ccccc4)C(C)=C1C3(C)C)[C@]1(OC(C)=O)CO[C@@H]1C[C@@H]2O + Cc1cnc(CNC(=O)c2c(=O)c3ccc(N4CCCN(C)CC4)nc3n3c2sc2ccccc23)cn1
class-name: fulfilled

Decide: viability, T/C of CC1COCCN1c1cc(-c2ccnn2C)c2ccnc(-c3ccn[nH]3)c2n1 (stereo not given) + Cc1cnc(CNC(=O)c2c(=O)c3ccc(N4CCCN(C)CC4)nc3n3c2sc2ccccc23)cn1 strictly below 30%?
fulfilled

Decide: viability, T/C of O=C(c1cc(Cc2n[nH]c(=O)c3ccccc23)ccc1F)N1CCN(C(=O)C2CC2)CC1 + Cc1cnc(CNC(=O)c2c(=O)c3ccc(N4CCCN(C)CC4)nc3n3c2sc2ccccc23)cn1 strictly below 30%?
fulfilled

Decide: viability, T/C of O=c1[nH]cc(F)c(=O)[nH]1 + Cc1[nH]c2ccc(F)cc2c1-c1nc2c3cccnc3c3ncccc3c2[nH]1 strictly below 30%?
not fulfilled

Decide: viability, T/C of CC1COCCN1c1cc(C2(S(C)(=N)=O)CC2)nc(-c2ccnc3[nH]ccc23)n1 (stereo not given) + CN(C)c1ccc(Nc2c3ccc(NC(=O)CCN4CCCC4)cc3nc3cc(NC(=O)CCN4CCCC4)ccc23)cc1 strictly below 30%?
not fulfilled

* * *

Tested on: 435261-313-R-J1-PDC complex spheroid viability
Assay: Anticancer human tumor 435261-313-R-J1-PDC cell line growth inhibition [GQUAD];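 note: spheroids exposed to the agents for seven days before readout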;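 for viability, T/C: percent of vehicle control viability with DMSO wells as 100%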
Settings: second compound 0.316 µM; first compound 0.000999 µM; stronger effect = lower value
Note to self: use 1 only for viability, T/C readings below 60%; a reading exactly at 60% still gets -1.

compound: CC[C@@]1(O)C(=O)OCc2c1cc1n(c2=O)Cc2cc3c(CN(C)C)c(O)ccc3nc2-1 + Cc1cnc(CNC(=O)c2c(=O)c3ccc(N4CCCN(C)CC4)nc3n3c2sc2ccccc23)cn1
class-name: 1
--
compound: CC[C@@]1(O)C(=O)OCc2c1cc1n(c2=O)Cc2cc3c(CN(C)C)c(O)ccc3nc2-1 + Cc1[nH]c2ccc(F)cc2c1-c1nc2c3cccnc3c3ncccc3c2[nH]1
class-name: -1
--
compound: Cc1[nH]c2ccccc2c1CCNCc1ccc(/C=C/C(=O)NO)cc1 + Cc1[nH]c2ccc(F)cc2c1-c1nc2c3cccnc3c3ncccc3c2[nH]1
class-name: -1
--
compound: Cc1[nH]c2ccccc2c1CCNCc1ccc(/C=C/C(=O)NO)cc1 + CN(C)c1ccc(Nc2c3ccc(NC(=O)CCN4CCCC4)cc3nc3cc(NC(=O)CCN4CCCC4)ccc23)cc1
class-name: -1

Please find the next compound below.
Decide: viability, T/C of CCc1c2c(nc3ccc(O)cc13)-c1cc3c(c(=O)n1C2)COC(=O)[C@]3(O)CC + Cc1cnc(CNC(=O)c2c(=O)c3ccc(N4CCCN(C)CC4)nc3n3c2sc2ccccc23)cn1 strictly below 60%?
1

* * *

Tested on: 435261-313-R-J1-PDC complex spheroid viability
Test: Anticancer human tumor 435261-313-R-J1-PDC cell line growth inhibition [GQUAD];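 note: spheroids exposed to the agents for seven days before readout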;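 for viability, T/C: percent of vehicle control viability with DMSO wells as 100%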
Details: second compound 3.16 µM; first compound 1 µM; stronger effect = lower value
From the text: DNA G-quadruplex Stabilizer Agents in Combinations in Complex Spheroids A high-throughput screen of multi-cell type tumor spheroids was designed to identify active combinations of DNA G-quadruplex stabilizer agents and targeted small molecules. […] Compounds. […] If the clinical Cmax for an agent had not been determined, the highest concentration tested was 10 microM. […]
recorded-endpoint: viability, T/C (%)
Numbers only here, please. The scale is %.

Consider the worked cases shown below.
molecule: Cc1cccc(N(C)C(=O)C2C(O)CCN2c2nc(C)cc(C(F)(F)F)c2C#N)c1 (stereo not drawn) + CN(C)c1ccc(Nc2c3ccc(NC(=O)CCN4CCCC4)cc3nc3cc(NC(=O)CCN4CCCC4)ccc23)cc1
viability, T/C, %: 66.4
--
molecule: O=c1[nH]cc(F)c(=O)[nH]1 + CN(C)c1ccc(Nc2c3ccc(NC(=O)CCN4CCCC4)cc3nc3cc(NC(=O)CCN4CCCC4)ccc23)cc1
viability, T/C, %: 63.3

Requested read-out: viability, T/C. Entry: CC1COCCN1c1cc(C2(O)CC3CCC(C2)O3)c2cnn(-c3ccn[nH]3)c2n1 (stereo not drawn) + CN(C)c1ccc(Nc2c3ccc(NC(=O)CCN4CCCC4)cc3nc3cc(NC(=O)CCN4CCCC4)ccc23)cc1
13.3
